B1: PPFIA4 (parent)
chain: PGVHRRYSALREESAKDWETSPLP

variants of: B1; assay: protein stability index of a GFP-peptide fusion (GPS, HEK-293T) (PSI 1-6); higher = more stable; conditions: c terminus: a fixed tail appended;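 also: lentivirally expressed fusions sorted by FACS into six bins by GFP to DsRed ratio, PSI derived from sequencing read proportions per bin multiplied by bin number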
Returns one of Satisfied or Not satisfied; Satisfied when protein stability index is >= 4.

Known results for variants:
{"variant-label": "S21Q", "label-class": "Satisfied"}
{"variant-label": "H4R", "label-class": "Not satisfied"}

# input Could you verify whether the entry "P1M" shows protein stability index of no less than 4?
# output Not satisfied

# input And the next one, "K16V" ?
# output Satisfied

# input What about "S8I" ?
# output Not satisfied

# input And "P22F" ?
# output Not satisfied

# input Same question for "S21W" please.
# output Satisfied

# input Next entry: "S21C"
# output Not satisfied

# input Entry "R6K" please
# output Satisfied
